Entries and their measured IC50 follow.
Target: S. aureus DNA gyrase (Staphylococcus aureus)
Construct: purchased Inspiralis (Norwich, UK)
Sequence (P20831 whole entry): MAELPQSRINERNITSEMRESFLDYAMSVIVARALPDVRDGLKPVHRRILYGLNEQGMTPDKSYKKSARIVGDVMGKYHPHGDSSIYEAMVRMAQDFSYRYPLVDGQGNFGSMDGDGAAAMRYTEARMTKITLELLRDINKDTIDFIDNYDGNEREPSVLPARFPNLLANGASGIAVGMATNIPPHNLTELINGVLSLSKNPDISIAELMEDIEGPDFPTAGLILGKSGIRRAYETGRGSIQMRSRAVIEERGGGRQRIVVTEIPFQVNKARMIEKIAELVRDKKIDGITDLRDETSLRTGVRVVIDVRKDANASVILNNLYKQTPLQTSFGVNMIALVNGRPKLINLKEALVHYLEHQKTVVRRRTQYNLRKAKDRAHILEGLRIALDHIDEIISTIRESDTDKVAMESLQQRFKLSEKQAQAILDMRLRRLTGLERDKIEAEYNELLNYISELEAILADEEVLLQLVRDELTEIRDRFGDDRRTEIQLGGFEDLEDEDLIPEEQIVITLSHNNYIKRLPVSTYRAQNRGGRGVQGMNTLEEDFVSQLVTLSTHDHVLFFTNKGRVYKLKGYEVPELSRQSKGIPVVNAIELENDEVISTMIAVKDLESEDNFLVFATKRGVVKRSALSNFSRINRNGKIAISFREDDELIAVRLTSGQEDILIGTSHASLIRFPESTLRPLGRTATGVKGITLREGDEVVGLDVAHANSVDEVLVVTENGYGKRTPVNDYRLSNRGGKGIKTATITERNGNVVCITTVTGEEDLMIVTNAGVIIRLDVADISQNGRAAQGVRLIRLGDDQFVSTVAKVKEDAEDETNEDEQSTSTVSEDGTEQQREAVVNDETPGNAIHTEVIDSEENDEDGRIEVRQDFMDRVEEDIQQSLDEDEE
Sequence (P0A0K8 whole entry partner): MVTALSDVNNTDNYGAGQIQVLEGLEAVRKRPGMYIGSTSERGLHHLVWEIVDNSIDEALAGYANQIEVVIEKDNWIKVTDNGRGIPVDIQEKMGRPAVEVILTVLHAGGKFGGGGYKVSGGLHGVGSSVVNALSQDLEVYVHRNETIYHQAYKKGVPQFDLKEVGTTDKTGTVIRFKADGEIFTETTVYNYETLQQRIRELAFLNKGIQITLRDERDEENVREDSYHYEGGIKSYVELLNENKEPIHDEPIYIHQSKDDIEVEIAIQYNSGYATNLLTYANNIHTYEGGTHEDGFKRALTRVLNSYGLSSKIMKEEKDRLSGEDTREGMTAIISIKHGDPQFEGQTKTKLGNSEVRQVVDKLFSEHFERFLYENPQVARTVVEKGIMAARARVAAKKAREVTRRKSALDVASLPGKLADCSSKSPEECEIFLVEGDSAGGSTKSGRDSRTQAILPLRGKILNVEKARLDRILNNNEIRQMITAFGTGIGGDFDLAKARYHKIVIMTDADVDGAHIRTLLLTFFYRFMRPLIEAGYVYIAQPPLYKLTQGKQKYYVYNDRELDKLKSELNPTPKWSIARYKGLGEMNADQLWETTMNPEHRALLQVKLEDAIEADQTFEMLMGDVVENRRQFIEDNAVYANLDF
Test: S. aureus DNA gyrase supercoiling gel assay
Format: biochemical
Conditions: replicate Assay 1; read-out: IC50 S.aureus gyrase Supercoiling, Assay 1
Respond with the bare value in nM.

Past entries and their recorded results:
COc1cnc2ncc(=O)n([C@H]3CC[C@H](NCc4cc5c(=O)oc6ccc(F)cc6c5[nH]4)CC3)c2c1; 160
Cl.O=c1oc2ccc(F)cc2c2[nH]c(CN[C@H]3CC[C@H](n4c(=O)ccc5ccc(F)cc54)CC3)cc12; 270
O=C1COc2ncc(F)cc2N1[C@H]1CC[C@H](NCc2cc3c(=O)oc4ccc(F)cc4c3[nH]2)CC1; 250

Task: Item under review: O=c1oc2ccc(F)cc2c2[nH]c(CN[C@H]3CC[C@H](n4c(=O)cnc5ncc(F)cc54)CC3)cc12 . Reported IC50?
Output: 800

###

Entries and their measured IC50 follow.
Molecular target: S. aureus Topoisomerase IV (Staphylococcus aureus)
Construct: purchased Inspiralis (Norwich, UK)
Sequence (P0C1S7 whole entry): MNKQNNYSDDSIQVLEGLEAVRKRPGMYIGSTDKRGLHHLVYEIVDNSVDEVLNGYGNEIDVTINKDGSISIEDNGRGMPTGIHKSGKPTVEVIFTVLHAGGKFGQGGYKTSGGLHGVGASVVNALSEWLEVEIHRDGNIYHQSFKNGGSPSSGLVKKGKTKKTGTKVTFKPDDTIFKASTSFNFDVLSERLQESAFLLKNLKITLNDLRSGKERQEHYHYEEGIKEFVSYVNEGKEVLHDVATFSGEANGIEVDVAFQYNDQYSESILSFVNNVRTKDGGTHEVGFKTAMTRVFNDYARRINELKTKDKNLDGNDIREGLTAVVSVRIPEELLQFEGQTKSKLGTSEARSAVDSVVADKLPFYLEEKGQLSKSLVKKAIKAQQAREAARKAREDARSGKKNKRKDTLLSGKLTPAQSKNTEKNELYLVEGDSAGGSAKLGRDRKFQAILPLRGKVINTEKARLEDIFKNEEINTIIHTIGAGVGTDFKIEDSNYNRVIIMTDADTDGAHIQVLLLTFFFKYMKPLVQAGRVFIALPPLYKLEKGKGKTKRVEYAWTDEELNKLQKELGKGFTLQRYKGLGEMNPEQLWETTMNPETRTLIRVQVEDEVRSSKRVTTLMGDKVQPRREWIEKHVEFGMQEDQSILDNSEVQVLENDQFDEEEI
Sequence (P0C1U9 whole entry): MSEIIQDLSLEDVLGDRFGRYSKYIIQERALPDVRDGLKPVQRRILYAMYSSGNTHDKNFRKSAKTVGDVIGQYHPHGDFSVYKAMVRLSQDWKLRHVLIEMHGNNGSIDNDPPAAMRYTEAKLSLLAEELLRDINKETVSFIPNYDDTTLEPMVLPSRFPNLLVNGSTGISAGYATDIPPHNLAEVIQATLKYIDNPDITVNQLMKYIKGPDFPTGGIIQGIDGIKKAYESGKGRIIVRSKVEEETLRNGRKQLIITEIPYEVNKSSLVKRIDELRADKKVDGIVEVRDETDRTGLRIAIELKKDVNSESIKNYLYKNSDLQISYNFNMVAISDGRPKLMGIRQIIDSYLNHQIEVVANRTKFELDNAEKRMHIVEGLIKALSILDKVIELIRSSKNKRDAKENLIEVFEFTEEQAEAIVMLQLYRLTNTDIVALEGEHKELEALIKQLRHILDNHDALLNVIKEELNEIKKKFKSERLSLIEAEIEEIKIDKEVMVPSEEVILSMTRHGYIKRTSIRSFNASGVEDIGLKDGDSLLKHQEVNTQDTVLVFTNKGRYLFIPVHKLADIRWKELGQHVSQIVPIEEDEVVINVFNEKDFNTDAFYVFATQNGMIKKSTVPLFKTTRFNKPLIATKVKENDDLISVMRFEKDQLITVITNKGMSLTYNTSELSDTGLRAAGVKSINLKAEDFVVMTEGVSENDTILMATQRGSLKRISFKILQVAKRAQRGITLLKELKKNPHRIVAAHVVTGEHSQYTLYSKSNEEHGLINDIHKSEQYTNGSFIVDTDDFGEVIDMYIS
Assay: S. aureus topoisomerase IV decatenation gel assay
Type: biochemical
Conditions: replicate Assay 1; read-out: IC50 S. aureus Topoisomerase IV decatenation, Assay 1
Respond with the bare value in nM.

Past entries and their recorded results:
COc1cnc2ncc(=O)n([C@H]3CC[C@H](NCc4cc5c(=O)oc6ccc(F)cc6c5[nH]4)CC3)c2c1 [Compound 5]; 80
O=C1COc2ncc(F)cc2N1[C@H]1CC[C@H](NCc2cc3c(=O)oc4ccc(F)cc4c3[nH]2)CC1 [Compound 1]; 2200
Cl.O=c1oc2ccc(F)cc2c2[nH]c(CN[C@H]3CC[C@H](n4c(=O)ccc5ccc(F)cc54)CC3)cc12 [Compound 6]; 310

Task: Item under review: O=c1oc2ccc(F)cc2c2[nH]c(CN[C@H]3CC[C@H](n4c(=O)cnc5ncc(F)cc54)CC3)cc12 [Compound 4] . Reported IC50?
Output: 260

###

This document collects MIC values reported for S. pneumoniae ATCC 49619.
Respond with the bare value in µg/mL.

O=c1oc2ccc(F)cc2c2[nH]c(CN[C@H]3CC[C@H](n4c(=O)cnc5ncc(F)cc54)CC3)cc12 [Compound 4]; 0.25
COc1cnc2ncc(=O)n([C@H]3CC[C@H](NCc4cc5c(=O)oc6ccc(F)cc6c5[nH]4)CC3)c2c1 [Compound 5]; 0.5
Cl.O=c1oc2ccc(F)cc2c2[nH]c(CN[C@H]3CC[C@H](n4c(=O)ccc5ncc(F)cc54)CC3)cc12 [Compound 3]; 0.25
O=C1COc2ncc(F)cc2N1[C@H]1CC[C@H](NCc2cc3c(=O)oc4ccc(F)cc4c3[nH]2)CC1 [Compound 1]; 0.5

The record that follows has no MIC shown yet.
Task: Missing value: MIC, S. pneumoniae ATCC 49619, entry Cl.O=c1oc2ccc(F)cc2c2[nH]c(CN[C@H]3CC[C@H](n4c(=O)ccc5ccc(F)cc54)CC3)cc12 [Compound 6] . Fill in?
Output: 0.12

###

Entries and their measured IC50 follow.
Target: E. coli DNA gyrase (Escherichia coli)
Construct: purchased Inspiralis (Norwich, UK)
Experiment: E. coli DNA gyrase supercoiling gel assay
Assay type: biochemical
Conditions: average of two replicate experiments; read-out: IC50 E. coli Gyrase Supercoiling (average)
Method: S. aureus and E. coli DNA gyrase supercoiling and topo IV decatenation assay kits, as well as human topoisomerase II decatenation assay kits, were provided by Inspiralis (Norwich, UK). […] DNA bands were visualized by ethidium bromide staining the gel for 10 minutes, which was then destained for 10 minutes in water and analysed using gel documentation equipment (Syngene, Cambridge, UK). The DNA in each band was quantitated using Syngene Gene Tools software. […]
Respond with the bare value in nM.

COc1cnc2ncc(=O)n([C@H]3CC[C@H](NCc4cc5c(=O)oc6ccc(F)cc6c5[nH]4)CC3)c2c1; 100
O=C1COc2ncc(F)cc2N1[C@H]1CC[C@H](NCc2cc3c(=O)oc4ccc(F)cc4c3[nH]2)CC1; 250

The record that follows has no IC50 shown yet.
Task: Item under review: O=c1oc2ccc(F)cc2c2[nH]c(CN[C@H]3CC[C@H](n4c(=O)cnc5ncc(F)cc54)CC3)cc12 . Reported IC50?
Output: 130

###

System: E. faecium clinical isolates (n = 12) vanA (6)/vanB (6)
Experiment: MIC, multidrug-resistant clinical isolates
Type: cell-based
Conditions: Enterococcus faecium
Parameter measured: MIC90 (µg/mL)
Respond with the bare value in µg/mL.

Task: Item under review: CCCCCCCCCC(=O)N[C@@H](Cc1c[nH]c2ccccc12)C(=O)N[C@H](CC(N)=O)C(=O)N[C@@H](CC(=O)O)C(=O)N[C@@H]1C(=O)NCC(=O)N[C@@H](CCCN)C(=O)N[C@@H](CC(=O)O)C(=O)N[C@H](C)C(=O)N[C@@H](CC(=O)O)C(=O)NCC(=O)N[C@H](CO)C(=O)N[C@@H]([C@H](C)CC(=O)O)C(=O)N[C@@H](CC(=O)c2ccccc2N)C(=O)O[C@@H]1C [daptomycin, reference compound] . Reported MIC90?
Output: 4

###

Target: E. coli Topoisomerase IV (Escherichia coli)
Construct: purchased Inspiralis (Norwich, UK)
Sequence (P20083 whole entry): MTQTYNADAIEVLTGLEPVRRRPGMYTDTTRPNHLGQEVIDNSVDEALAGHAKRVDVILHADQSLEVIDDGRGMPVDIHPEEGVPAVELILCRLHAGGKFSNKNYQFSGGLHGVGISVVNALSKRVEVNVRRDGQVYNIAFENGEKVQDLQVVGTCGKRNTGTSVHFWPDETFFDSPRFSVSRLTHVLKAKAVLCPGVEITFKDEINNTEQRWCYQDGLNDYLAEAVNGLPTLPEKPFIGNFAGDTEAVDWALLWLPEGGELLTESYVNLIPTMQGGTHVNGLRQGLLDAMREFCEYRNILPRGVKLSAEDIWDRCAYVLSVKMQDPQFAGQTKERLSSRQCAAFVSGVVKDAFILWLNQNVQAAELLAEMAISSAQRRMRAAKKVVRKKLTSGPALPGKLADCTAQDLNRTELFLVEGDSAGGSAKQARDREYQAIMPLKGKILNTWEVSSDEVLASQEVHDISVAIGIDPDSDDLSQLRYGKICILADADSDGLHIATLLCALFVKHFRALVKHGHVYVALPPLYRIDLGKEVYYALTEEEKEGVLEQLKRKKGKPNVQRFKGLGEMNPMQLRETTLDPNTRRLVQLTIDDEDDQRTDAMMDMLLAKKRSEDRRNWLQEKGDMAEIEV
Sequence (P0AFI2 whole entry): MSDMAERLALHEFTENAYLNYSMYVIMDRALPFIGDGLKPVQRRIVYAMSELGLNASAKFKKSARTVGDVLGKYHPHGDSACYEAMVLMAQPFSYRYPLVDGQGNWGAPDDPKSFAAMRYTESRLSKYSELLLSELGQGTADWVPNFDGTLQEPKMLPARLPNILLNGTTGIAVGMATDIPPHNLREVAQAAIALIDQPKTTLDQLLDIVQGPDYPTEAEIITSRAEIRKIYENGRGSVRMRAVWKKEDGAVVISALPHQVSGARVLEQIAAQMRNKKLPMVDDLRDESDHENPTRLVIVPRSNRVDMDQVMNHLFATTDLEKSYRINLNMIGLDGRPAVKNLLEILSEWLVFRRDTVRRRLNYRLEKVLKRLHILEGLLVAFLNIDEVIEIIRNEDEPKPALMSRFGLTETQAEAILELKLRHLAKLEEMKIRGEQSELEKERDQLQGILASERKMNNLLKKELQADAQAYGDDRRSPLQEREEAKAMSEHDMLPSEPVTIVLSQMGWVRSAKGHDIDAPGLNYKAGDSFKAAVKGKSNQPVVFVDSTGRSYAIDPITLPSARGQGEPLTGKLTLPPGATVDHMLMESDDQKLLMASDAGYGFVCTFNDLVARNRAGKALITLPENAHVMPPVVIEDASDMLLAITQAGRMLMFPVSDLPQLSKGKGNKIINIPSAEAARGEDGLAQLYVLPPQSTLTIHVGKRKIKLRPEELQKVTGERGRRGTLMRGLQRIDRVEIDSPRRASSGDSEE
Assay: E. coli topoisomerase IV decatenation gel assay
Format: biochemical
Details: average of two replicate experiments; read-out: IC50 E. coli Topoisomerase IV decatenation (average)
Parameter measured: IC50 (nM)
Respond with the bare value in nM.

Past entries and their recorded results:
COc1cnc2ncc(=O)n([C@H]3CC[C@H](NCc4cc5c(=O)oc6ccc(F)cc6c5[nH]4)CC3)c2c1 [Compound 5]; 140
O=c1oc2ccc(F)cc2c2[nH]c(CN[C@H]3CC[C@H](n4c(=O)cnc5ncc(F)cc54)CC3)cc12 [Compound 4]; 300

The record that follows has no IC50 shown yet.
Task: Missing value: IC50, E. coli Topoisomerase IV (Escherichia coli), entry O=C1COc2ncc(F)cc2N1[C@H]1CC[C@H](NCc2cc3c(=O)oc4ccc(F)cc4c3[nH]2)CC1 [Compound 1] . Fill in?
Output: 1380

###

Test system: S. pyogenes APV00074
Entries and their measured MIC follow.
Respond with the bare value in µg/mL.

COc1cnc2ncc(=O)n([C@H]3CC[C@H](NCc4cc5c(=O)oc6ccc(F)cc6c5[nH]4)CC3)c2c1; 0.12
O=C1COc2ncc(F)cc2N1[C@H]1CC[C@H](NCc2cc3c(=O)oc4ccc(F)cc4c3[nH]2)CC1; 0.5

The record that follows has no MIC shown yet.
Task: Item under review: O=c1oc2ccc(F)cc2c2[nH]c(CN[C@H]3CC[C@H](n4c(=O)cnc5ncc(F)cc54)CC3)cc12 . Reported MIC?
Output: 0.12

###

Entries and their measured log10 MIC50 follow.
Test system: E. faecalis clinical isolates (n = 12) vanA (6)/vanB (6)
Test: MIC, multidrug-resistant clinical isolates
Type: cell-based
Conditions: Enterococcus faecalis
The common logarithm of MIC50 in µg/mL is what is listed.

Past entries and their recorded results:
CCCCCCCCCC(=O)N[C@@H](Cc1c[nH]c2ccccc12)C(=O)N[C@H](CC(N)=O)C(=O)N[C@@H](CC(=O)O)C(=O)N[C@@H]1C(=O)NCC(=O)N[C@@H](CCCN)C(=O)N[C@@H](CC(=O)O)C(=O)N[C@H](C)C(=O)N[C@@H](CC(=O)O)C(=O)NCC(=O)N[C@H](CO)C(=O)N[C@@H]([C@H](C)CC(=O)O)C(=O)N[C@@H](CC(=O)c2ccccc2N)C(=O)O[C@@H]1C [daptomycin, reference compound]; 0.00
CC1(C)S[C@@H]2[C@H](NC(=O)[C@H](N)c3ccccc3)C(=O)N2[C@H]1C(=O)O [ampicillin, reference compound]; 0.30
Cl.N#Cc1ccc2ccc(=O)n([C@H]3CC[C@H](NCc4cc5c(=O)oc6ccc(F)cc6c5[nH]4)CC3)c2c1 [Compound 2]; -0.92

Task: Item under review: CC(=O)NC[C@H]1CN(c2ccc(N3CCOCC3)c(F)c2)C(=O)O1 [linezolid, reference compound] . Reported log10 MIC50?
Output: 0.30

Task: Item under review: O=c1oc2ccc(F)cc2c2[nH]c(CN[C@H]3CC[C@H](n4c(=O)cnc5ncc(F)cc54)CC3)cc12 [Compound 4] . Reported log10 MIC50?
Output: -0.60

Task: Item under review: CC1(C)S[C@@H]2[C@H](NC(=O)Cc3ccccc3)C(=O)N2[C@H]1C(=O)O [penicillin, penicillin G potassium, reference compound] . Reported log10 MIC50?
Output: 0.60

###

System: N. gonorrhoeae ATCC 49226
Assay: MIC, agar dilution
Type: cell-based
Settings: Neisseria gonorrhoeae, ATCC49226; N. gonorrhoeae ATCC 49226, ciprofloxacin-susceptible
Entries and their measured MIC follow.
Respond with the bare value in µg/mL.

Past entries and their recorded results:
O=c1oc2ccc(F)cc2c2[nH]c(CN[C@H]3CC[C@H](n4c(=O)cnc5ncc(F)cc54)CC3)cc12 [Compound 4]; 0.06
COc1cnc2ncc(=O)n([C@H]3CC[C@H](NCc4cc5c(=O)oc6ccc(F)cc6c5[nH]4)CC3)c2c1 [Compound 5]; 0.125
Cl.N#Cc1ccc2ccc(=O)n([C@H]3CC[C@H](NCc4cc5c(=O)oc6ccc(F)cc6c5[nH]4)CC3)c2c1 [Compound 2]; 0.06
Cl.O=c1oc2ccc(F)cc2c2[nH]c(CN[C@H]3CC[C@H](n4c(=O)ccc5ncc(F)cc54)CC3)cc12 [Compound 3]; 0.016
O=C1COc2ncc(F)cc2N1[C@H]1CC[C@H](NCc2cc3c(=O)oc4ccc(F)cc4c3[nH]2)CC1 [Compound 1]; 0.06

The record that follows has no MIC shown yet.
Task: Missing value: MIC, N. gonorrhoeae ATCC 49226, entry Cl.O=c1oc2ccc(F)cc2c2[nH]c(CN[C@H]3CC[C@H](n4c(=O)ccc5ccc(F)cc54)CC3)cc12 [Compound 6] . Fill in?
Output: 0.03
